Tested on: HL-60(TB) leukemia
procedureText: NCI-60 one-dose screen, 48 h (100 = growth as untreated, 0 = no growth, -100 = all killed)
testSettings: 10 µM unless noted
This is part of a sample that, as a whole, favours compounds with a hit. Of some 83,000 tested, about 20% had one in any assay.
Quick list: growth per entry.
// units = %; emit number, no label

Worked examples follow.
COc1cc2c(cc1OC)C1(C)N(CC2)C(=O)OC1(C)C (stereo not given) : -79.2
C=CC[N+]1(CC)CCN=C1CCCCCCCCCCCCCCCCC (stereo not given) : -59.5
C[C@H](CCC(=O)O)[C@H]1CC[C@H]2[C@@H]3CC[C@@H]4/C(=C\c5ccco5)C(=O)/C(=C\c5ccco5)C[C@]4(C)[C@H]3CC[C@]12C : 29.9
O=C1CCC(N2C(=O)c3cccc(NCCOCCOCCNC(=O)c4cc5c(o4)C(=O)c4ccccc4C5=O)c3C2=O)C(=O)N1 (stereo not given) : -9.95
COc1ccc2c(c1)C(C)Cc1c(ncnc1-n1c(C)nc3ccccc31)N2C (stereo not given) : 1.95
Cc1ccc(S(=O)(=O)Nc2ccc(-c3cc(-c4cccc(F)c4)c(C#N)c(N)n3)cc2)cc1 : -14.9
CN(C)CCCn1c2c(c3ncccc3c1=O)C(=O)c1ccccc1-2 : 45.6
CSc1nc(N)c(N)c(N)n1 : 77.8

With those in mind, consider the next molecule.
// growth lookup, key: `Cc1nn(Cc2ccccc2)cc1C(=O)Nc1sc2c(c1C(N)=O)CCC(=O)C2`
-4.39
